Numbers sourced from patent US20110077237A1.

Ki reference
- Measured On: PKC delta kinase (Homo sapiens, UniProt Q05655)
- Sequence (Q05655 whole entry): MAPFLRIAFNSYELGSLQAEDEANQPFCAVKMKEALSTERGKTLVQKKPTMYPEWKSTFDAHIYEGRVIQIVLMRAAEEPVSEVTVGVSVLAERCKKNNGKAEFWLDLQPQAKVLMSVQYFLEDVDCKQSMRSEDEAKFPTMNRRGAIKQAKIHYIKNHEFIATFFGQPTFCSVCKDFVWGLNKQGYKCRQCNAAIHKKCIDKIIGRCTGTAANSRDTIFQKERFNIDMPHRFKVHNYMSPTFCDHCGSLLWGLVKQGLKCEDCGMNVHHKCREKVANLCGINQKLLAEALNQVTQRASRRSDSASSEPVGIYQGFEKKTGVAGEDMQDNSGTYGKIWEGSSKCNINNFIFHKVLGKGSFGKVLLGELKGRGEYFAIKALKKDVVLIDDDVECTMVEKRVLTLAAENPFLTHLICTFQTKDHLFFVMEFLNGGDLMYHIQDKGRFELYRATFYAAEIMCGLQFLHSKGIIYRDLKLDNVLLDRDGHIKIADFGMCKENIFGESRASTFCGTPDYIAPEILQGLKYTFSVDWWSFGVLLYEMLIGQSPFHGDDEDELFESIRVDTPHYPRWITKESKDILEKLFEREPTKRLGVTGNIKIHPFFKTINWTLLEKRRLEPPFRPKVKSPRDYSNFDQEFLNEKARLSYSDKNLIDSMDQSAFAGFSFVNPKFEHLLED
- Test Details: PKC Delta coupled-enzyme kinase assay
- Format: biochemical
- Condition Set: 46 nM PKC delta, 150 μM ATP, 30° C.; read-out: Ki PKC delta

Worked cases, Ki given:
>>> experimental_result("Nc1ncc(-c2cccnc2)cc1C(=O)c1cccc(N2CCCNCC2)n1 [compound 58]")
"50 to 500 nM"
>>> experimental_result("COc1cccc(-c2cnc(N)c(C(=O)c3cccc(N4CCCNCC4)n3)c2)c1 [compound 181]")
"50 to 500 nM"
>>> experimental_result("Nc1ncc(Br)cc1C(=O)c1nc(N2CCNCC2)ccc1Cl [compound 329]")
"50 to 500 nM"
>>> experimental_result("Nc1ncccc1C(=O)c1cccc(N2CCNC(c3ccc(Cl)c(Cl)c3)C2)n1 (stereo not drawn) [compound 313]")
"50 to 500 nM"
>>> experimental_result("Nc1ncccc1C(=O)c1cccc(Br)n1 [compound 390]")
"500 to 2800 nM"
>>> experimental_result("Nc1ncc(Br)cc1C(=O)c1cccc(N2CCCN(C(=O)c3ccccc3Cl)CC2)n1 [compound 151]")
"500 to 2800 nM"

Query string: Output Ki of CC(C)[C@H]1CN(c2ccc(C(F)(F)F)c(C(=O)c3cccnc3N)n2)CCN1 [compound 338]
Result string: 50 to 500 nM

Query string: Given the molecule Nc1ncccc1C(=O)c1cncc(N2CCCNCC2)n1 [compound 157] , write its reported Ki.
Result string: 50 to 500 nM

Query string: For the molecule Nc1ncccc1C(=O)c1cccc(N2CCNC(c3ccc(Cl)cc3)C2)n1 (stereo not drawn) [compound 307] , give its measured Ki value.
Result string: 500 to 2800 nM

----------
pKi: −log10 of the molar value.
Notes on pKi obtained with PKC alpha kinase (Homo sapiens, UniProt P17252).

>>> experimental_result("CC(C)C(CO)Nc1ccc(C(F)(F)F)c(C(=O)c2cccnc2N)n1 (stereo not shown)")
"5.55 to 6.30"
>>> experimental_result("NCC1CCCN(c2cccc(C(=O)c3cccnc3N)n2)C1 (stereo not shown)")
"< 5.55"
>>> experimental_result("Nc1ncc(Cc2ccccc2)cc1C(=O)c1cccc(N2CCCNCC2)n1")
"> 7.30"
>>> experimental_result("C#Cc1cnc(N)c(C(=O)c2cccc(N3CCCNCC3)n2)c1")
"> 7.30"
>>> experimental_result("Cc1cc(N)n(-c2ccc(C(F)(F)F)c(C(=O)c3cccnc3N)n2)n1")
"5.55 to 6.30"
>>> experimental_result("CC(C)[C@H](N)CNc1ccc(C(F)(F)F)c(C(=O)c2cccnc2N)n1")
"5.55 to 6.30"

Query string: Please respond with reported pKi (system PKC alpha kinase (Homo sapiens, UniProt P17252)) for "NCCSc1ccc(C(F)(F)F)c(C(=O)c2cccnc2N)n1" .
Result string: 5.55 to 6.30

Query string: Report pKi under test system PKC alpha kinase (Homo sapiens, UniProt P17252) for "CC(C)[C@H](CN)Nc1ccc(C(F)(F)F)c(C(=O)c2cccnc2N)n1" .
Result string: 5.55 to 6.30

Query string: Given Nc1ncccc1C(=O)c1nc(NCC2CCNC2)ccc1C(F)(F)F (stereo not shown) , report its pKi on PKC alpha kinase (Homo sapiens, UniProt P17252).
Result string: 5.55 to 6.30

Query string: Look up and report pKi, with PKC alpha kinase (Homo sapiens, UniProt P17252) as system, for Nc1ncccc1C(=O)c1nc(NC2CCCCC2N)ccc1C(F)(F)F (stereo not shown)
Result string: 5.55 to 6.30

Query string: Please tell me the measured pKi for "Nc1ncccc1C(=O)c1ccn(C2CCNCC2)n1" ; system: PKC alpha kinase (Homo sapiens, UniProt P17252).
Result string: 5.55 to 6.30

Query string: Lab note: record pKi of Cc1ccc(C2CN(c3cccc(C(=O)c4cccnc4N)n3)CCN2)cc1 (stereo not shown) tested on PKC alpha kinase (Homo sapiens, UniProt P17252).
Result string: 5.55 to 6.30

Query string: Report pKi from PKC alpha kinase (Homo sapiens, UniProt P17252) testing of Nc1ncccc1C(=O)c1nccc(N2CCNC(c3ccccc3)C2)n1 (stereo not shown)
Result string: < 5.55

Query string: Please report the measured pKi for Cc1cccc(C2CN(c3ccc(C(F)(F)F)c(C(=O)c4cccnc4N)n3)CCN2)c1 (stereo not shown) tested on PKC alpha kinase (Homo sapiens, UniProt P17252).
Result string: > 7.30

Query string: Give pKi only, for Nc1ncccc1C(=O)c1cccc(N2CCNC(Cc3cnc[nH]3)C2)n1 (stereo not shown) , using PKC alpha kinase (Homo sapiens, UniProt P17252) data.
Result string: < 5.55

Query string: Recall the reported pKi of "CC(C)C[C@H]1CN(c2ccc(Cc3ccccc3)c(C(=O)c3cccnc3N)n2)CCN1" when tested on PKC alpha kinase (Homo sapiens, UniProt P17252).
Result string: 5.55 to 6.30

----------
- Measured On: PKC delta kinase (Homo sapiens, UniProt Q05655)
- Test Details: PKC Delta coupled-enzyme kinase assay
- Assay type: biochemical
- Condition Set: 46 nM PKC delta, 150 μM ATP, 30° C.; read-out: Ki PKC delta
Experimental Readout: Ki

Below, 5 compounds whose answers are already recorded.
>>> experimental_result("Nc1ncccc1C(=O)c1nc(NC2CCCNC2)ccc1C(F)(F)F (stereo not drawn) [compound 381]")
"500 to 2800 nM"
>>> experimental_result("Nc1ncccc1C(=O)c1nc(N2CCC(N)CC2)ccc1Cl [compound 322]")
"50 to 500 nM"
>>> experimental_result("Nc1ncc(/C=C/c2ccccc2)cc1C(=O)c1cccc(N2CCCNCC2)n1 [compound 167]")
"50 to 500 nM"
>>> experimental_result("CC(C)(C)C(=O)N1CCCN(c2cccc(C(=O)c3cccnc3N)n2)CC1 [compound 37]")
"500 to 2800 nM"
>>> experimental_result("COc1ccc(C2CN(c3cccc(C(=O)c4cccnc4N)n3)CCN2)cc1 (stereo not drawn) [compound 310]")
"50 to 500 nM"

Query string: Using known records, supply Ki for Nc1ncc(-c2ccsc2)cc1C(=O)c1cccc(N2CCNC(c3ccccc3)C2)n1 (stereo not drawn) [compound 264]
Result string: 500 to 2800 nM

Query string: Tell us which Ki value is on record for CC(C)[C@H](CN)Nc1ccc(C(F)(F)F)c(C(=O)c2cccnc2N)n1 [compound 370]
Result string: 500 to 2800 nM

----------
- Measured On: PKC theta (Homo sapiens, UniProt Q04759)
- Sequence (Q04759 whole entry): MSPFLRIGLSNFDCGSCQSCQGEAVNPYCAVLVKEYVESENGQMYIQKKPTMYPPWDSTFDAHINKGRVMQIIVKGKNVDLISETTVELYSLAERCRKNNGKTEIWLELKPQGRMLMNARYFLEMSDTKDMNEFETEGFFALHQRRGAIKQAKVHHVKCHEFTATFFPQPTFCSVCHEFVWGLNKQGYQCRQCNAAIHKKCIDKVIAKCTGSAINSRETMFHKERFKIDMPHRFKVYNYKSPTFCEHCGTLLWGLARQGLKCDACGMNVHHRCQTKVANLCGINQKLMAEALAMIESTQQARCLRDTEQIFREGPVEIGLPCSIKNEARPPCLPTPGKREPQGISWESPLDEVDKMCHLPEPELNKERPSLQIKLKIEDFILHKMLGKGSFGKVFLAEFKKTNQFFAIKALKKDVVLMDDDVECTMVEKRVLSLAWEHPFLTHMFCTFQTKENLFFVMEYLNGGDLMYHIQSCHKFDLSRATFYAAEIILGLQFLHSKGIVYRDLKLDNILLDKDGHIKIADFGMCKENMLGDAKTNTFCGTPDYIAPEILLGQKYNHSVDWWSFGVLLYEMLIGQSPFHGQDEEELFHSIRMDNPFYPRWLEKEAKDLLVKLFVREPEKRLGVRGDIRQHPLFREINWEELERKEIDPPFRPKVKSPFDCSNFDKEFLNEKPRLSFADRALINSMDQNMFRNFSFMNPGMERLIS
- Test Details: PKC Theta II 33P radiometric kinase assay
- Assay type: biochemical
- Condition Set: 0.5 nM PKC theta, 240 μM ATP, [γ-33P] ATP, 25° C., compound range 0-0.25 μM
pKi: −log10 of the molar value.
Experimental Readout: pKi

>>> experimental_result("C/C=C/c1ccc(N2CCN[C@@H](CC(C)C)C2)nc1C(=O)c1cccnc1N")
"6.30 to 7.30"
>>> experimental_result("Nc1ncc(Br)cc1C(=O)c1cccc(N2CCCNCC2)n1")
"> 7.30"
>>> experimental_result("C=Cc1ccc(N2CCN[C@@H](CC(C)C)C2)nc1C(=O)c1cccnc1N")
"6.30 to 7.30"

Query string: Tell me pKi reported for "C#Cc1ccc(N2CCN[C@@H](CC(C)C)C2)nc1C(=O)c1cccnc1N"
Result string: 6.30 to 7.30

Query string: Read off the recorded pKi for "C=Cc1cnc(N)c(C(=O)c2cccc(N3CCCNCC3)n2)c1"
Result string: 6.30 to 7.30

Query string: Identify the reported pKi for the following entry. "C=Cc1cnc(N)c(C(=O)c2cccc(N3CCCN(C(=O)CC(F)(F)F)CC3)n2)c1"
Result string: > 7.30

Query string: Using the record for "Nc1ncc(Br)cc1C(=O)c1cccc(N2CCCN(C(=O)CC(F)(F)F)CC2)n1" , state its measured pKi.
Result string: > 7.30

Query string: For the molecule "Nc1ncc(-c2ccccc2)cc1C(=O)c1cccc(N2CCCNCC2)n1" , report pKi.
Result string: > 7.30

Query string: Tell us which pKi value is on record for CC1CNCCN1c1cccc(C(=O)c2cccnc2N)n1 (centres unmarked)
Result string: 6.30 to 7.30

----------
- Measured On: PKC delta kinase (Homo sapiens, UniProt Q05655)
- Test Details: PKC Delta coupled-enzyme kinase assay
- Format: biochemical
- Condition Set: 46 nM PKC delta, 150 μM ATP, 30° C.; read-out: Ki PKC delta
Experimental Readout: Ki

Worked examples follow.
>>> experimental_result("Nc1ncccc1C(=O)c1cccc(-c2c[nH]c3ccccc23)n1 [compound 294]")
"> 2800 nM"
>>> experimental_result("Nc1ncccc1C(=O)c1nc(N2CCNC(c3ccccc3)C2)ccc1C(F)F (centres unmarked) [compound 404]")
"50 to 500 nM"
>>> experimental_result("Nc1ncccc1C(=O)c1cccc(N2CCCN(C(=O)CC3CC3)CC2)n1 [compound 35]")
"> 2800 nM"
>>> experimental_result("NCCCOc1ccc(C(F)(F)F)c(C(=O)c2cccnc2N)n1 [compound 405]")
"500 to 2800 nM"

Query string: Report measured Ki; entry is Cc1cc(C(=O)c2cccnc2N)nn1C1CCCNCC1 (centres unmarked) [compound 217]
Result string: 500 to 2800 nM
